Tested on: Neuron
protocol.summary: Neuroprotective activity against degeneration of rat DA neurons assessed as […] immunopositive neurons at 10 nM by immunofluorescence staining relative to control
Assay type: functional
Recorded Activity by entry

| test.smiles | Activity (%) |
| --- | --- |
| CCCCCCCCCCCCCCCCCCCCNCCc1c[nH]c2ccccc12 | 128.9 |
| CCCCCCCCCCCCCCCCC(=O)NCCc1c[nH]c2ccccc12 | 106 |
| CCCCCCCCCCCCCNCCc1c[nH]c2ccccc12 | 92.8 |
| CCCCCCCCCCCCCCCC(=O)NCCc1c[nH]c2ccccc12 | 121.3 |
| CCCCCCCCCCCCC(=O)NCCc1c[nH]c2ccccc12 | 98.5 |
| CCCCCCCCCCCCCCCCNCCc1c[nH]c2ccccc12 | 131.9 |
| O=C(CCCCCCCCCCCCCCO)NCCc1c[nH]c2ccccc12 | 108 |
| CCCCCCCCCCCCCCCCCCCCCCC(=O)NCCc1c[nH]c2ccccc12 | 114 |
| CCCCCCCCCCCCCCCCCCNCCc1c[nH]c2ccccc12 | 129.9 |
| CCCCCCCCCCCCCCCCCCCC(=O)NCCc1c[nH]c2ccccc12 | 121.8 |
| OCCCCCCCCCCCCCCCNCCc1c[nH]c2ccccc12 | 129.4 |
| CCCCCCCCCCCCCCC(=O)NCCc1c[nH]c2ccccc12 | 99.3 |
